# Target of assay: T1, IL-2 receptor βγ complex (human, UniProt P14784 27-551; P31785 23-369)
# T1 sequence (looked up) 1: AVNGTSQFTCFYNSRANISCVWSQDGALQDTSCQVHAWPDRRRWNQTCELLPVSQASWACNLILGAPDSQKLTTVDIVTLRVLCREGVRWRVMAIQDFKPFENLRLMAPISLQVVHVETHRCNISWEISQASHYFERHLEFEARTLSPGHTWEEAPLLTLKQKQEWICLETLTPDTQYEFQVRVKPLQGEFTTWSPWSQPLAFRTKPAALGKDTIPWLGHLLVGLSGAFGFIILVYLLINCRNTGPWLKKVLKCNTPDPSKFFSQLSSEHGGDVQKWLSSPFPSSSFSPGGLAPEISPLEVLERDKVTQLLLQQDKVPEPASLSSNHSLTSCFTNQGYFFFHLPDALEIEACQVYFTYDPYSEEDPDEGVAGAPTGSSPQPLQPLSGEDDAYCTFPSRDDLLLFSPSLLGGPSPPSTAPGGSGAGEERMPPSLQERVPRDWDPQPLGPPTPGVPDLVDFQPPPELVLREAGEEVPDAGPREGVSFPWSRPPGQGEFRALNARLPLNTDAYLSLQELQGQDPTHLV
# T1 sequence (looked up) 2: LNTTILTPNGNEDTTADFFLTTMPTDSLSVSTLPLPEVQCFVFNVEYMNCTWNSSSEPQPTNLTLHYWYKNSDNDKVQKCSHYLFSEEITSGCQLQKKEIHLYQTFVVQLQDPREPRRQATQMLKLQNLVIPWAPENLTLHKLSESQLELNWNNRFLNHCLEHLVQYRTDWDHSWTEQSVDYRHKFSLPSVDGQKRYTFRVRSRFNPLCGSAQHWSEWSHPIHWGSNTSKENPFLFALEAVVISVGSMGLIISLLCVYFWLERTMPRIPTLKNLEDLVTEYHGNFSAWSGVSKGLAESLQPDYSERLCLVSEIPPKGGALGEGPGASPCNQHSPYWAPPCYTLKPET
# Method summary: cell-based or functional assay
Bridges are numbered along the chain shown (N, C = ends). Primed or numbered codes have the meaning given here. [ ]: non-standard residue; d: D form. 8x polyethylene glycol‑amino = O-(8x polyethylene glycol-amino)-tyrosine, SITE 45; 9x polyethylene glycol‑azido = O-(9x polyethylene glycol-azido)-tyrosine, SITE 42; Ygp = O-(8x polyethylene glycol-amino)-tyrosine (Tyr, amino-capped PEG8); Yn3 = O-(9x polyethylene glycol-azido)-tyrosine (Tyr, azide-capped PEG9); PEG9′ = 9x polyethylene glycol; hSer = N[C@@H](CCO)C(=O)O; Nle = CCCC[C@H](N)C(=O)O
Below is a list of entries, each paired with its recorded Average EC50, pSTAT5 Assay in NK cells value.
Return type: number; implicit unit nM.

Q) Fill in reported Average EC50, pSTAT5 Assay in NK cells for this entry: CMP-315, Matriptase cleaved molecule (ligand, also: matriptase cleavage product, not given here as a sequence, Lys23 side-chain attachment remnant unknown) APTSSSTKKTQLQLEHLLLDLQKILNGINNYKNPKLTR[Nle]L[hSer]Y(9x polyethylene glycol‑azido)KFY(8x polyethylene glycol‑amino)[Nle]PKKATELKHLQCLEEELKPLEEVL[hSer]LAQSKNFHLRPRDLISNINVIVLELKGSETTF[hSer]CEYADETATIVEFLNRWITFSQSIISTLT
A) 0.387

Query binder follows.
Q) Fill in reported Average EC50, pSTAT5 Assay in NK cells for this entry: CMP-136 (ligand, bridge N-37; not fully specified (bridges); ends not checked) [PEG9′]PLGLAG[PEG9′]APTSSSTKKTQLQLEHLLLDLQ[Nle]ILNGIENYKNPKLTR[Nle]L[hSer][Yn3]KF[Ygp][Nle]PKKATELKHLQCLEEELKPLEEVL[hSer]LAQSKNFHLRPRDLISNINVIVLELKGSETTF[hSer]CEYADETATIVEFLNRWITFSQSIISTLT
A) 2.17
